# Tested on: Abutilon theophrasti (velvetleaf)
# Protocol notes: Greenhouse post-emergence treatment of Abutilon theophrasti (velvetleaf)
# Format: in vivo
# Measurement context: application rate 1000 g/ha, scale 0 (no damage) to 100 (complete destruction)
Property: damage [%] (%)
Report the figure in % without appending any unit label.

Some molecules with known damage [%] results, for comparison:
Cn1ncnc1NC(=O)c1c(F)ccc(Cl)c1Cl [I.A-1441]; 75
Cn1ncnc1NC(=O)c1cc(F)c(Cl)cc1Cl [I.A-5]; 75
Cn1ncnc1NC(=O)c1c(F)cc(Cl)cc1Cl [I.A-1]; 100

Request the reported damage [%] associated with CSc1c(Cl)cc(F)c(C(=O)Nc2nnnn2C)c1Cl [V.A-1442]
100

Request the reported damage [%] associated with Cn1nnnc1NC(=O)c1c(F)cc(Cl)c(S(C)(=O)=O)c1Cl [V.A.-41]
100

Request the reported damage [%] associated with Cn1nnnc1NC(=O)c1cc(F)c(Cl)cc1Cl [V.A-5]
100

Request the reported damage [%] associated with Cn1ncnc1NC(=O)c1c(F)cc(Cl)c(S(C)(=O)=O)c1Cl [I.A-41]
100
